Provide the reported IC50 of each item.
- METHOD_SUMMARY: Antiinflammatory activity in Escherichia coli lipopolysaccharide-activated rat neonatal microglia assessed as inhibition of eicosanoid thromboxane B2
- Format: functional, cell-based
Answer in nM, number only, no unit symbol.

IC50 for `Oc1cccc2c1[nH]c1c([C@H]3C[C@@]4(O)CCCCCCCCN5CC[C@@H]3[C@]3(C[C@@H]6CCCCCCN6[C@@H]43)C5)nccc12` ? 1970

What do you have for Oc1cccc2c1[nH]c1c(C3=C[C@]4(O)CC/C=C\CCCCN5CC[C@H]3[C@@]3(C[C@H]6/C=C\CCCCN6[C@@H]34)C5)nccc12 [ENT-8-HYDROXYMENZAMINE A] ? 250

Each recorded value in this set is attributed to ChEMBL document CHEMBL1144758.
